# maps each entry to its logD
method: physchem
experimentalSetup: octan-1-ol/water, pH 7.4, LogD7.4
# print the numeric value only

Examples from the recorded data:
{"compound": "COc1cc(CNc2nc3ccccc3[nH]2)cc(OC)c1OC", "logD": 2.36}
{"compound": "Nc1ccc2c(c1)-c1ccccc1C(=O)C2=O", "logD": 2.39}

Fill blank: measured logD of the compound "Cc1ccnc(NCc2ccccc2)c1" is ____.
3.08

Given the compound "FC(F)(F)c1nnc2ccc(NCc3cccnc3)nn12" , what is its reported logD?
2.06

Reported logD for "Cc1ncccc1Oc1ncnc(OC2CCN(C(=O)OC(C)C)CC2)c1C" : what is it?
3.8

So what's the measured logD for this one? "Cn1c(C#N)ccc1-c1ccc2c(c1)C(C)(C)OC(=O)N2"
2.85
